- studyTarget: MtCA2 (Mycobacterium tuberculosis)
- Construct: made in house
- Sequence (P9WPJ9 whole entry, looked up): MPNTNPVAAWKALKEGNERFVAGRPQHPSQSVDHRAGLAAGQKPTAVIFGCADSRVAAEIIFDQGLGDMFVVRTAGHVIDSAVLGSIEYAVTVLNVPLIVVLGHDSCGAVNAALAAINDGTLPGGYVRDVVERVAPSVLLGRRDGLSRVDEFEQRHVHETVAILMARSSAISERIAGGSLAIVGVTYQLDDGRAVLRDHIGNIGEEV
- protocol: stopped-flow CO2 hydrase assay, MtCA2
- Format: biochemical
- runConditions: ratio of Ki values
# Lookup of reported Selectivity Index (SI) hCA II/MtCA2 keyed by entry
# respond with the number and nothing more

CN1C(=O)NS(=O)(=O)c2cc(Cl)ccc21	17.3
COc1ccc2c(c1)S(=O)(=O)NC(=O)N2	12.6
O=C1Nc2ccc(Br)cc2S(=O)(=O)N1	11.8

**Q:** Answer with Selectivity Index (SI) hCA II/MtCA2 of O=C1Nc2c(C(=O)O)cccc2S(=O)(=O)N1 measured for MtCA2 (Mycobacterium tuberculosis).
**A:** 23.2

**Q:** Answer with Selectivity Index (SI) hCA II/MtCA2 of O=C1Nc2ccccc2S(=O)(=O)N1 measured for MtCA2 (Mycobacterium tuberculosis).
**A:** 2.2

**Q:** Answer with Selectivity Index (SI) hCA II/MtCA2 of Cc1cc(C)c2c(c1)NC(=O)NS2(=O)=O measured for MtCA2 (Mycobacterium tuberculosis).
**A:** 0.7

**Q:** Answer with Selectivity Index (SI) hCA II/MtCA2 of O=C1Nc2c(ccc3ccccc23)S(=O)(=O)N1 measured for MtCA2 (Mycobacterium tuberculosis).
**A:** 0.5

**Q:** Answer with Selectivity Index (SI) hCA II/MtCA2 of O=C1Nc2c(Cl)cccc2S(=O)(=O)N1 measured for MtCA2 (Mycobacterium tuberculosis).
**A:** 3.2

**Q:** Answer with Selectivity Index (SI) hCA II/MtCA2 of Cc1cccc2c1NC(=O)NS2(=O)=O measured for MtCA2 (Mycobacterium tuberculosis).
**A:** 2.5

**Q:** Answer with Selectivity Index (SI) hCA II/MtCA2 of O=C1Nc2ccc(Cl)cc2S(=O)(=O)N1 measured for MtCA2 (Mycobacterium tuberculosis).
**A:** 17.0

**Q:** Answer with Selectivity Index (SI) hCA II/MtCA2 of O=C1Nc2ccc(O)cc2S(=O)(=O)N1 measured for MtCA2 (Mycobacterium tuberculosis).
**A:** 51.8

**Q:** Answer with Selectivity Index (SI) hCA II/MtCA2 of O=C1Nc2ccc(C(=O)O)cc2S(=O)(=O)N1 measured for MtCA2 (Mycobacterium tuberculosis).
**A:** 30.4

**Q:** Answer with Selectivity Index (SI) hCA II/MtCA2 of Cc1ccc(C)c2c1NC(=O)NS2(=O)=O measured for MtCA2 (Mycobacterium tuberculosis).
**A:** 0.9

**Q:** Answer with Selectivity Index (SI) hCA II/MtCA2 of O=C1Nc2c(Br)cccc2S(=O)(=O)N1 measured for MtCA2 (Mycobacterium tuberculosis).
**A:** 1.1

**Q:** Answer with Selectivity Index (SI) hCA II/MtCA2 of O=C1Nc2c(F)cccc2S(=O)(=O)N1 measured for MtCA2 (Mycobacterium tuberculosis).
**A:** 2.2

* * *

# Lookup of reported Selectivity Index (SI) hCA II/MtCA1 keyed by entry
- studyTarget: MtCA1 (Mycobacterium tuberculosis, UniProt P9WPJ7)
- Construct: made in house
- Sequence (P9WPJ7 whole entry): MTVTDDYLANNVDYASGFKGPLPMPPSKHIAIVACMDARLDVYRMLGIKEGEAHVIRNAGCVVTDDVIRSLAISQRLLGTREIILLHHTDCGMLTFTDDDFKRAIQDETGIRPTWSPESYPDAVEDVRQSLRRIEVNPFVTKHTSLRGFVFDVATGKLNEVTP
- protocol: biochemical
- runConditions: ratio of Ki values
# respond with the number and nothing more

Before answering, review these 8 worked examples.
COc1ccc2c(c1)S(=O)(=O)NC(=O)N2	0.7
Cc1cccc2c1NC(=O)NS2(=O)=O	0.1
O=C1Nc2ccc(O)cc2S(=O)(=O)N1	1.3
O=C1Nc2ccc(Br)cc2S(=O)(=O)N1	0.8
O=C1Nc2c(C(=O)O)cccc2S(=O)(=O)N1	0.7
O=C1NS(=O)(=O)c2cccc3c2N1CC3	1.2
O=C1Nc2c(ccc3ccccc23)S(=O)(=O)N1	0.5
CN1C(=O)NS(=O)(=O)c2cc(Cl)ccc21	2.0

**Q:** Input O=C1Nc2ccc(Cl)cc2S(=O)(=O)N1 , output reported Selectivity Index (SI) hCA II/MtCA1.
**A:** 0.5

**Q:** Input Cc1ccc2c(c1)S(=O)(=O)NC(=O)N2 , output reported Selectivity Index (SI) hCA II/MtCA1.
**A:** 0.8
